Parameter: phosphorylation enrichment. Scope: all listed entries.
Biological target: EPHB1 (UniProt P54762)
Sequence (P54762 whole entry, looked up): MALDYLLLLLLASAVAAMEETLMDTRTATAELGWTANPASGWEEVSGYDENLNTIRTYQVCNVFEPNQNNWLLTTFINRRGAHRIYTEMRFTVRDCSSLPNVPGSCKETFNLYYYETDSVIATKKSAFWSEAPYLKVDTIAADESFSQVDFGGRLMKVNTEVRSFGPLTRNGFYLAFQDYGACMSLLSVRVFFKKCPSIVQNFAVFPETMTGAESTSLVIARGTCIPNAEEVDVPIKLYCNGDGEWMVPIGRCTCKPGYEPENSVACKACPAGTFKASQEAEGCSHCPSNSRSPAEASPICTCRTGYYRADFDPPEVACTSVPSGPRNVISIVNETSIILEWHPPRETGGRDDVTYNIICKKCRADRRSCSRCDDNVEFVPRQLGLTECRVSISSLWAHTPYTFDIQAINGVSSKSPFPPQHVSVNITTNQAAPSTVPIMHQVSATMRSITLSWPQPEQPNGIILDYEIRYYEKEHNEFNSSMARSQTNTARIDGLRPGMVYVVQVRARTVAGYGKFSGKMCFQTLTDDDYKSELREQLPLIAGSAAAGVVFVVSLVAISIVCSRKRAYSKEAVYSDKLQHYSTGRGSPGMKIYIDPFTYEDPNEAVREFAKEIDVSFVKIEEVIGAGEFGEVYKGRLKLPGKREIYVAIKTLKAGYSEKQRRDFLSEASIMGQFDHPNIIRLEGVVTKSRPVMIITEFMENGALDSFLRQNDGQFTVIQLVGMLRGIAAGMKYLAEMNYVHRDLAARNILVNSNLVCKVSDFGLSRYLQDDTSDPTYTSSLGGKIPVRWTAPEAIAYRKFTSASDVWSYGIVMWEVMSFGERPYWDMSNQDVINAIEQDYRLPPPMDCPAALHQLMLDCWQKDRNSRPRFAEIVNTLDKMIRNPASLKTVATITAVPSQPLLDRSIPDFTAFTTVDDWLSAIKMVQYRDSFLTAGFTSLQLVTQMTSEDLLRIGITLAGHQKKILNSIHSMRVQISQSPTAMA
Assay: phosphorylation enrichment, bacterial display (enrichment ratio); higher = better substrate or ligand; peptides without Tyr show the background;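 note: 11-residue human phosphosite peptides and single-mutation variants displayed on the E. coli surface, counted by deep sequencing, each peptide's frequency after selection divided by its frequency in the unselected input library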;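 note: frequency after pTyr selection over input frequency; kinase dosed for 20-30% of maximal phosphorylation in three min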

# Biopolymer sequence, phosphorylation enrichment
data = [
    ("LAVPLYKNGVK [CPS1_Y1069]", 1.09),
    ("DPYHVYIKNRV [KCNE3_Y95]", 0.544),
    ("KMKGDYFRSLA [YWHAG_Y130_Y133S_YF]", 0.457),
    ("KENITYMKREQ [L1TD1_Y24]", 0.498),
    ("CEAMEYQESKQ [BTK_Y511_L512Q]", 0.76),
    ("CEDGNYSPEIS [PTDSS1_Y424_T423N]", 0.612),
    ("PEIIAYQPFGK [PRKCG_Y529_YF]", 0.635),
    ("DLRTGYSVPFG [TGM1_Y370_Y365D_YF]", 0.44),
    ("TDISLYPSGGT [TENM4_Y399_V396I]", 0.46),
    ("KDFTKYVAYIE [KDM4B_Y31_N29T]", 0.651),
    ("SNKLTYGTVVF [ACOX1_Y275_M278V]", 0.524),
    ("EWQQIYTFDSG [JUP_Y20_T19I_YF]", 1.21),
]

====

Target: Fes (UniProt P07332)
Sequence (P07332 whole entry, looked up): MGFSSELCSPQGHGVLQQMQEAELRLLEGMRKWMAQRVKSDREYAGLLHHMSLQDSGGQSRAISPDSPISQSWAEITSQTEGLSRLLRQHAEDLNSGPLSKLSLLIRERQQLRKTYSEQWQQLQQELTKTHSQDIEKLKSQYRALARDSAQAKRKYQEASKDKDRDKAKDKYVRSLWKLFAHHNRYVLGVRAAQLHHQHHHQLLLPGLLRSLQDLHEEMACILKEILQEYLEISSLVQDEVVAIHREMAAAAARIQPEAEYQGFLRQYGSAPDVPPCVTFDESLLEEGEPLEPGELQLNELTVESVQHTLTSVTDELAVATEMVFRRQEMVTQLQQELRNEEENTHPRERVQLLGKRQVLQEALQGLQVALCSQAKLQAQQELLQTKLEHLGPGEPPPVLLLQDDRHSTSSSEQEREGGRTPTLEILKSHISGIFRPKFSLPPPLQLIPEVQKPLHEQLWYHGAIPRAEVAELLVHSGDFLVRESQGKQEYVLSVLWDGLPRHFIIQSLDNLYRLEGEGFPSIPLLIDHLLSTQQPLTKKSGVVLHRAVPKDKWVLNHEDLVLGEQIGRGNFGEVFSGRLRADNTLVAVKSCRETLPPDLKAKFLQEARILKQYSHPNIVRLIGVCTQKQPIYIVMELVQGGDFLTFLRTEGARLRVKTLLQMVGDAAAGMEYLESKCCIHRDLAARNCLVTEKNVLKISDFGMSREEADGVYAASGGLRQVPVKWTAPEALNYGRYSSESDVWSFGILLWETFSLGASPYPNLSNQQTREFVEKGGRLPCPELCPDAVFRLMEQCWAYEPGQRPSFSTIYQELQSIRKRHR
Test: phosphorylation enrichment, bacterial display (enrichment ratio); higher = better substrate or ligand; peptides without Tyr show the background
Outcome: YES for phosphorylation enrichment of at least 0.9; NO for anything lower.

# Biopolymer sequence, Label
measured = [
    ("FRQLQYCPSVE [CTNND2_Y508_YF]", "YES"),
    ("HKLSSYEFDFE [BTK_Y40_Y39S_YF]", "YES"),
    ("MENFIYESMQF [CYP19A1_Y361_R365Q_YF]", "YES"),
    ("SNNYIYTTLGV [FAM83B_Y639_K640T]", "YES"),
    ("RTIPDYTSFNT [EPHB2_Y912]", "NO"),
    ("VITDYYVDMKF [MPP4_Y567]", "YES"),
    ("QISRDYGVLLE [PRDX3_Y172]", "YES"),
    ("QNWELYSEGLG [CNKSR1_Y665_R662W]", "YES"),
    ("KVVVPYEPPEV [TP53_Y220_S215K]", "NO"),
    ("CTLTHYKSAVK [ASNS_Y555_R550C]", "NO"),
    ("VTRLRYPVCFG [ITK_Y336]", "YES"),
    ("GRLFAYPDTHR [CAT_Y358]", "NO"),
    ("LSTPEYGPKLK [TBC1D14_Y46_A43T]", "NO"),
    ("TVDASYCGGRG [ANTXR2_Y380_Y381C]", "NO"),
    ("ALEKTYNTFRS [B4GALNT2_Y538_YF]", "NO"),
    ("NTGFFYDLFGG [PTPN11_Y63_D61Y_YF]", "YES"),
    ("AAFNKYDQERF [CDC73_Y293_R292K_YF]", "NO"),
    ("TKDTFYQQPMF [GBA_Y451_K452Q]", "NO"),
    ("GGQVFHNSEFG [FLT4_Y1333_Y1333H_YF]", "NO"),
    ("FPLELYERVRM [PRKCG_Y312_YF]", "YES"),
    ("IEDNEYTAREG [HCK_Y411]", "YES"),
    ("IEELTYVIKQD [STX5_Y137_I138V]", "YES"),
    ("CTTIHKNYMCN [TP53_Y234_Y234K]", "NO"),
    ("FPKVRYHWLVL [APTX_Y214_A212V_YF]", "YES"),
    ("GLCSYYETSKM [MAGED2_Y449_R446C]", "YES"),
    ("TNYRLYLRSLE [MTM1_Y71]", "YES"),
    ("DFFDLYGGKKF [PTPN11_Y66_E69K_YF]", "YES"),
    ("RLLRGYRQDAF [HLA-A_Y137_F133L_YF]", "YES"),
    ("YVPSFYHAFSG [ACTN4_Y265_S262P]", "YES"),
    ("ADLAKYICENR [ALB_Y287_Q292R]", "YES"),
]

====

Biological target: Hck (UniProt P08631)
Sequence (P08631 whole entry, looked up): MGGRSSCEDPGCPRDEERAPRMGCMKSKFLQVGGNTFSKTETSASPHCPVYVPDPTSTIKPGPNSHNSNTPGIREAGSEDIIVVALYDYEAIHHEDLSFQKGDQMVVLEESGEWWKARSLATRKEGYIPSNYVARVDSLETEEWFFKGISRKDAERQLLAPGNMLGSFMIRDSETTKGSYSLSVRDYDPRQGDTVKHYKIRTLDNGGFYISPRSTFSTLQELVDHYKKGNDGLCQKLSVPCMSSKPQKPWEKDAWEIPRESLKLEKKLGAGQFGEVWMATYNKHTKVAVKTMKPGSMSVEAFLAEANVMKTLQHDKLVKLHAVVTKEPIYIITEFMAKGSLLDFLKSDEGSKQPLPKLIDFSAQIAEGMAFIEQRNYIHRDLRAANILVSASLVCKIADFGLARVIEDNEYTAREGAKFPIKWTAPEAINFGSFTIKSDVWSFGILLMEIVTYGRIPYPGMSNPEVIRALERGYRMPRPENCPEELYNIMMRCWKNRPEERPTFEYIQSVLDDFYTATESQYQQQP
Experiment: phosphorylation enrichment, bacterial display (enrichment ratio); higher = better substrate or ligand; peptides without Tyr show the background

# Biopolymer sequence, phosphorylation enrichment
data = [
    ("FSGDCYRIQGR [DDR2_Y741_Y740C_YF]", 0.472),
    ("EKQARYEIVEE [CDH5_Y223_V227E]", 0.667),
    ("DAHFTYSRFPW [LY75_Y888_D884A_YF]", 5.79),
    ("LERFIYNPEEF [HLA-DPB1_Y59_R61P_YF]", 1.33),
    ("TKDTFYQQPMF [GBA_Y451_K452Q]", 0.91),
    ("GREEFYVHFVG [KAT8_Y90_YF]", 0.581),
    ("LNECHYGALIG [BPGM_Y92_R90C]", 2.93),
    ("SAEEDYIADAK [KCNT1_Y876_M877I]", 0.554),
    ("QRCFVYFFSFL [PTEN_Y176_R173C_YF]", 0.65),
    ("APGNAYGDAGY [SYP_Y250_D248N]", 0.474),
    ("TFVVLYDAELT [ERCC4_Y581_R576T_YF]", 0.568),
    ("TSYSGYRCHRH [NKAPL_Y94_Y96C]", 0.5),
    ("PYVYYYSYLLK [PTEN_Y178_R173P]", 3.46),
    ("PLRAFYLIARV [HLCS_Y635_D634Y_YF]", 0.866),
    ("IGRGSYAKVLL [PRKCZ_Y263]", 0.419),
    ("AFGEVYEGQVS [ALK_Y1131]", 0.937),
    ("HRGSLYLAIEY [TEK_Y899_Y897S]", 0.798),
    ("MEVEQYIFVKC [CYBB_Y324_G322E]", 0.71),
    ("RLLVVYPWTRR [HBB_Y36_Q40R]", 1.14),
    ("REHTVYGEPRK [MAGEA4_Y240]", 0.903),
    ("SNKLTYGTVVF [ACOX1_Y275_M278V]", 3.09),
    ("SHRQDYLVGNK [GSTA1_Y147_G144R]", 0.397),
    ("EFNINYNNEPP [THG1L_Y228_L232P]", 0.583),
    ("PEAALYGRFTF [FYN_Y440_I445F]", 8.89),
    ("SEDSEYYKAFE [CASQ2_Y178]", 0.61),
    ("VRLTEYPCAGL", 0.428),
    ("VLTSTYRGGGG [HBA1_Y141_K140T]", 0.377),
    ("LFHENYNAGTY [CFI_Y421_I416L]", 0.527),
    ("MTYMFYRENLR [NLRP14_Y443_V441M]", 1.97),
    ("NTGYYYDLYGG [PTPN11_Y63_D61Y]", 6.15),
    ("RSGIFYKPESL [L2HGDH_Y103_H98R_YF]", 0.716),
    ("EWQQIYTFDSG [JUP_Y20_T19I_YF]", 7.35),
    ("LNERHYGALIG [BPGM_Y92]", 0.561),
]

====

System: c-Src
Experiment: phosphorylation enrichment, bacterial display (enrichment ratio); higher = better substrate or ligand; peptides without Tyr show the background
Parameter: phosphorylation enrichment. Scope: all listed entries.

# Biopolymer sequence, Target or test system, phosphorylation enrichment
data = [
    ("LSTPEYGPKLK [TBC1D14_Y46_A43T]", "c-Src", 0.494),
    ("FQEKGYNKELR [CHRND_Y38]", "c-Src", 0.378),
    ("CQKRKYIEIDS [SDAD1_Y580_S575C]", "c-Src", 0.479),
    ("SARFHYLMAEK [LDHB_Y173_R172H]", "c-Src", 0.403),
    ("LPHVIYCRLWR [SMAD2_Y128]", "c-Src", 2.05),
    ("LAVPLYKNGVK [CPS1_Y1069]", "c-Src", 0.416),
    ("ETRWKYHFEVV [GCNT3_Y267]", "c-Src", 0.364),
    ("KDFTKYVAYIE [KDM4B_Y31_N29T]", "c-Src", 0.523),
    ("IENKLYGMSDS [RET_Y1062_P1067S]", "c-Src", 0.614),
    ("MYVKSYTIHYS [F5_Y2153]", "c-Src", 0.425),
    ("NLNGKYYKPRA [ANGPTL3_Y417_N418Y]", "c-Src", 0.406),
    ("CTLTHYKSAVK [ASNS_Y555_R550C]", "c-Src", 0.408),
    ("PVPKTYDMLKA [PKP2_Y108]", "c-Src", 0.861),
    ("EPTPSYEVGQR [TSC2_Y1788_G1787S]", "c-Src", 0.428),
    ("AEARMYGVLPW [PLP1_Y207_D203E]", "c-Src", 4.81),
    ("TFWKKYRTFWK [CCDC70_Y125]", "c-Src", 0.664),
    ("VAMELYVFRGV [GAN_Y471_G474R]", "c-Src", 0.615),
    ("MHDKEYYSVHN [MET_Y1234_Y1230H]", "c-Src", 0.61),
    ("SPYAVYRFFTF [RPGRIP1_Y826]", "c-Src", 2.4),
    ("HFGCVYRGTLL [MET_Y1093_H1094R]", "c-Src", 1.97),
    ("FFLGKYLQEVL [KLB_Y910_YF]", "c-Src", 0.469),
    ("LNERHYGALIG [BPGM_Y92]", "c-Src", 0.639),
    ("NKPTVYGVSPN [ABL1_Y226]", "c-Src", 0.659),
    ("KKFVPYYDLFM [IPO5_Y530_E525K]", "c-Src", 2.32),
    ("EFNLMYHGTKE [IRF6_Y97_D98H]", "c-Src", 0.545),
    ("SIKGKYVTALY [KCNH2_Y611_D609G]", "c-Src", 0.318),
    ("DFTSRYLSASD [PKHD1_Y828_N830S]", "c-Src", 0.329),
    ("EREYKYGAHKY [OAT_Y50_N54K]", "c-Src", 0.359),
    ("LDYNEYFRNLN [HPRT1_Y198_D201N]", "c-Src", 0.657),
    ("GIADDYDKKKL [EIF1_Y54]", "c-Src", 0.377),
    ("REVVNYVQKRS [RMI1_Y450_N455S]", "c-Src", 0.564),
    ("GIVEDYRPRFY [ACVRL1_Y421_P424R]", "c-Src", 0.464),
    ("EKFVPYYDLFM [IPO5_Y530]", "c-Src", 4.22),
    ("SGFESYGSSSF [RPA2_Y9_YF]", "c-Src", 0.368),
    ("VLAHKYHGGGG [HBB_Y146_A141V]", "c-Src", 0.363),
    ("GCKNRYDEDKP [THAP1_Y14_K16E]", "c-Src", 0.438),
    ("WGLRSYFETSK [MAGED2_Y448_YF]", "c-Src", 0.32),
    ("YIGVTYKNKED [PDGFRA_Y993_E996K]", "c-Src", 0.476),
    ("TAPFNYSFIFK [RAB14_Y8_YF]", "c-Src", 0.377),
]

meta.source: the supplement of paper PMC10065799
